# ASSAYED_TARGET: T1, Cynomolgus monkey glycophorin A on Cynomolgus monkey red blood cells or red blood cell membranes (Cynomolgus monkey)
# T1 construct: whole, on cells; also called Cyno RBC; Cynomolgus monkey RBC membranes
# TEST: Fab on intact cyno RBC, unbound Fab by ELISA; 0 min after 200-fold dilution
Overview of recorded percentage of input antibody bound for various binders
Kindly provide the numeric value in % only, without the unit symbol.

TPP-7790, affinity matured 6C12 Fab (Fab, V domains shown, Tested as Fab with a 6xHIS tag) VH: EVQLVQSGAEVKKPGASVKVSCKASGYTFTTYAIHWVRQAPGQGLEWMGYINPSSGYTRYNPKFKHRVTMTRDKSTSTAYMELRSLRSDDTAVYYCWTGTRDYWGQGTTVTVSS VL: DIQLTQSPSFLSASVGDRVTITCRASSSVRYIYWFQQKPGKAPKLLIYATSFLQSGVPSRFSGSGSGTEYTLTISSLQPEDFATYYCHQRNSFPYTFGQGTKLEIK ... 87
TPP-7797, affinity matured 6C12 Fab (Fab, V domains shown, Tested as Fab) VH: EVQLVQSGAEVKKPGASVKVSCKASGYTFTTYTIHWVRQAPGQGLEWMGYINPSSGYTRYNPKFKGRVTMTRDKSTSTAYMELRSLRSDDTAVYYCWTGRRDYWGQGTTVTVSS VL: DIQLTQSPSFLSASVGDRVTITCRASSSVRYIYWFQQKPGKAPKLLIYATSFRQSGVPSRFSGSGSGTEYTLTISSLQPEDFATYYCHQRNSFPYTFGQGTKLEIK ... 81

Attention now turns to another entry.
Please indicate percentage of input antibody bound recorded for TPP-7783, affinity matured 6C12 Fab (Fab, V domains shown, Tested as Fab) VH: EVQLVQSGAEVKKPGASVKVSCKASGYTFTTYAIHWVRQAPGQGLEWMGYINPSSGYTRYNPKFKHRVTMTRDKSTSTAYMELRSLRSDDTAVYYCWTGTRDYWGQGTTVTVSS VL: DIQLTQSPSFLSASVGDRVTITCRASSSVRYIYWFQQKPGKAPKLLIYATSFRRSGVPSRFSGSGSGTEYTLTISSLQPEDFATYYCHQRNSFPYTFGQGTKLEIK
60
